Origin of the recorded values: ChEMBL document CHEMBL1135775

biological target: Monoamine transporters; Norepinephrine & dopamine (Homo sapiens) (UniProt Q01959+P23975); test: Selectivity ratio as ratio of IC50 value against NET to that of DAT; type: protein assay
Sequence (P23975 whole entry, looked up): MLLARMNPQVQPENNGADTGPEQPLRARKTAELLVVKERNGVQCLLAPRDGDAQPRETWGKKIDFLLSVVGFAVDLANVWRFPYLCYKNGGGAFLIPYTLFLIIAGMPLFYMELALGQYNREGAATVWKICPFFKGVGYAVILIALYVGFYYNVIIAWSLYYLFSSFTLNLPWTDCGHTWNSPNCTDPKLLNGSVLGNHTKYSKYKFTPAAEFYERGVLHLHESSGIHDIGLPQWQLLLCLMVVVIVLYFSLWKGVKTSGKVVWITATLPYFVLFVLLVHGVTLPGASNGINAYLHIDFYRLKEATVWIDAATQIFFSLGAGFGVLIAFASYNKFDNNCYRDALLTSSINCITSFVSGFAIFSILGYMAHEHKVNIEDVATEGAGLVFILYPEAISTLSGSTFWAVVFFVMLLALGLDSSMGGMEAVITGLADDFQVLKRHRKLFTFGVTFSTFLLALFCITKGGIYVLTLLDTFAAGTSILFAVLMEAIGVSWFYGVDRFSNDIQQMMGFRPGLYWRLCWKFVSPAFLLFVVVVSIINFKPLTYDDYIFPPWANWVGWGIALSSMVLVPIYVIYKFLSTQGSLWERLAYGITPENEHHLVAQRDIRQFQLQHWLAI
Sequence (Q01959 whole entry, looked up): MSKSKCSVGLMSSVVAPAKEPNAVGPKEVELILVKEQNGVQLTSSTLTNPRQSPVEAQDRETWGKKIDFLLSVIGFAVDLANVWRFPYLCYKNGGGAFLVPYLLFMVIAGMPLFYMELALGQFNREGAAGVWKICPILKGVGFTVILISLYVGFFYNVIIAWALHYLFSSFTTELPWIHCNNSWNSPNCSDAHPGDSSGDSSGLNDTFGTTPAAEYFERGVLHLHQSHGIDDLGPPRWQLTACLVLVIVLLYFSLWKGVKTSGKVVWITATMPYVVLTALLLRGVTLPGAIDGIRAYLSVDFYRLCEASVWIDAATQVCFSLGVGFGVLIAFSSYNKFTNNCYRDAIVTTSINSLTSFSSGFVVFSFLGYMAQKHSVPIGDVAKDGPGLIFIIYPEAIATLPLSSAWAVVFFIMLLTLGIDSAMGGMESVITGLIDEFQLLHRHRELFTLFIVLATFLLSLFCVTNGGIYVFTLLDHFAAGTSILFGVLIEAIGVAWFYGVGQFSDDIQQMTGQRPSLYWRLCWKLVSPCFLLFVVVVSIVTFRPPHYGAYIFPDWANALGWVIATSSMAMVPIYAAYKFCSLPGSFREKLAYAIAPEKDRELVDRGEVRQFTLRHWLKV
ENDPOINT: Ratio

molecule OC1(c2ccccc2)c2ccccc2C2=NCCN21 (stereo not given) , Ratio observed: 0.1

molecule OC1(c2ccc(Cl)cc2)c2ccccc2C2=NCCCN21 (stereo not given) , Ratio observed: 10.6

molecule OC1(c2ccc(Cl)cc2)c2cc(Cl)c(Cl)cc2C2=NCCN21 (stereo not given) , Ratio observed: 38

molecule COc1cccc2c1C(O)(c1ccc(Cl)cc1)N1CCN=C21 (stereo not given) , Ratio observed: 2.2

molecule OC1(c2ccc3c(c2)OCO3)c2ccccc2C2=NCCCN21 (stereo not given) , Ratio observed: 3.5

molecule Oc1ccc(C2(O)c3ccccc3C3=NCCCN32)cc1 (stereo not given) , Ratio observed: 4.4

molecule COc1ccc2c(c1)C(O)(c1ccc(Cl)cc1)N1CCN=C21 (stereo not given) , Ratio observed: 3.9

* * *

Some compounds, each annotated with its measured Ki.
biological target: Sodium-dependent serotonin transporter (Homo sapiens, UniProt P31645)
Sequence (P31645 whole entry): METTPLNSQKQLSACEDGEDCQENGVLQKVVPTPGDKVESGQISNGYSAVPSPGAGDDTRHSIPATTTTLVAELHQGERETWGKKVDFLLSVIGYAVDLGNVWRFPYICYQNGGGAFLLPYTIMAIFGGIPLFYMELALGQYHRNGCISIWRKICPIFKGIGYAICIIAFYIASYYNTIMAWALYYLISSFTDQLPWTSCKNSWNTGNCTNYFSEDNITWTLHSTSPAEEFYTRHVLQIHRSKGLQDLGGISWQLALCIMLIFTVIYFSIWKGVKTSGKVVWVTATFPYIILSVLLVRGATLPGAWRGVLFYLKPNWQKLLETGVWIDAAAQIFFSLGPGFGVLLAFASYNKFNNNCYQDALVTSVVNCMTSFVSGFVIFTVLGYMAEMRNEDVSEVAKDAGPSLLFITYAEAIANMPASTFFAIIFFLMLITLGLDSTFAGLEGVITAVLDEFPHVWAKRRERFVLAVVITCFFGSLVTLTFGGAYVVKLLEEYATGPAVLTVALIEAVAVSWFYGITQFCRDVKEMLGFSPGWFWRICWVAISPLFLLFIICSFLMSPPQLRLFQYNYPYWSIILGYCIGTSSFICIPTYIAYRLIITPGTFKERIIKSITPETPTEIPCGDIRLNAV
Return type: number; implicit unit nM.

Below, 3 compounds whose answers are already recorded.
• COc1cccc2c1C1=NCCN1C2(O)c1ccc(Cl)cc1 (stereo not given) = 870
• OC1(c2ccc(Cl)cc2)c2cc(Cl)c(Cl)cc2C2=NCCN21 (stereo not given) = 1350
• Oc1ccc(C2(O)c3ccccc3C3=NCCCN32)cc1 (stereo not given) = 77

compound COc1cccc2c1C(O)(c1ccc(Cl)cc1)N1CCN=C21 (stereo not given) , Ki observed: 1990

* * *

Some compounds, each annotated with its measured pIC50.
molecular target: Sodium-dependent dopamine transporter (Homo sapiens); assay: Inhibition of dopamine uptake in HEK cells expressing human dopamine transporter (hDAT); type: functional, cell-based, HEK293
Units for pIC50: none; it is -log10 of a concentration expressed in mol/L.

- COc1ccc2c(c1)C(O)(c1ccc(Cl)cc1)N1CCN=C21 (stereo not given): 7.78
- OC1(c2ccccc2)c2ccccc2C2=NCCN21 (stereo not given): 6.14
- COc1cccc2c1C(O)(c1ccc(Cl)cc1)N1CCN=C21 (stereo not given): 7.22
- Oc1ccc(C2(O)c3ccccc3C3=NCCCN32)cc1 (stereo not given): 7.23
- OC1(c2ccc(Cl)cc2)c2cccc(F)c2C2=NCCN21 (stereo not given): 7.04

Sodium-dependent dopamine transporter (Homo sapiens) assay, compound COc1ccc(C2(O)c3ccccc3C3=NCCCN32)cc1 (stereo not given) , recorded pIC50 = 7.52

Sodium-dependent dopamine transporter (Homo sapiens) assay, compound OC1(c2ccc(Cl)cc2)c2cc(Cl)c(Cl)cc2C2=NCCN21 (stereo not given) , recorded pIC50 = 8.22

Sodium-dependent dopamine transporter (Homo sapiens) assay, compound OC1(c2ccc(Cl)cc2)c2ccccc2C2=NCCCN21 (stereo not given) , recorded pIC50 = 8.43

Sodium-dependent dopamine transporter (Homo sapiens) assay, compound Clc1ccc(C2c3ccccc3C3=NCCN32)cc1 (stereo not given) , recorded pIC50 = 8.22

Sodium-dependent dopamine transporter (Homo sapiens) assay, compound COc1cccc2c1C1=NCCN1C2(O)c1ccc(Cl)cc1 (stereo not given) , recorded pIC50 = 7.38

* * *

target: Sodium-dependent dopamine transporter (Homo sapiens, UniProt Q01959); experiment: Ability to block the uptake of […] at the Dopamine transporter of HEK cells expressing cDNA for the human transporter (hDAT); type: functional, cell-based, HEK293
ENDPOINT: pIC50
Units for pIC50: none; it is -log10 of a concentration expressed in mol/L.

compound OC1(c2ccc3c(c2)OCO3)c2ccccc2C2=NCCCN21 (stereo unspecified) , pIC50 observed: 8.66

* * *

Some compounds, each annotated with its measured IC50.
molecular target: Sodium-dependent noradrenaline transporter (Homo sapiens, UniProt P23975); assay: Inhibition of NE uptake in HEK cells expressing human noradrenaline transporter (hNET)
Sequence (P23975 whole entry): as the sequence (P23975 whole entry, looked up) above
Return type: number; implicit unit nM.

Below, 4 compounds whose answers are already recorded.
• COc1cccc2c1C(O)(c1ccc(Cl)cc1)N1CCN=C21 (configuration not stated) = 1.73
• OC1(c2ccc3c(c2)OCO3)c2ccccc2C2=NCCCN21 (configuration not stated) = 0.62
• OC1(c2ccccc2)c2ccccc2C2=NCCN21 (configuration not stated) = 2.8
• OC1(c2ccc(Cl)cc2)c2cc(Cl)c(Cl)cc2C2=NCCN21 (configuration not stated) = 10

compound OC1(c2ccc(Cl)cc2)c2ccccc2C2=NCCCN21 (configuration not stated) , IC50 observed: 4.9

compound COc1ccc(C2(O)c3ccccc3C3=NCCCN32)cc1 (configuration not stated) , IC50 observed: 4.1

compound Clc1ccc(C2c3ccccc3C3=NCCN32)cc1 (configuration not stated) , IC50 observed: 6.9

compound OC1(c2ccc(Cl)cc2)c2cccc(F)c2C2=NCCN21 (configuration not stated) , IC50 observed: 5

compound COc1ccc2c(c1)C(O)(c1ccc(Cl)cc1)N1CCN=C21 (configuration not stated) , IC50 observed: 1.46

compound Oc1ccc(C2(O)c3ccccc3C3=NCCCN32)cc1 (configuration not stated) , IC50 observed: 1.9

compound OC1(c2ccc(Cl)cc2)c2ccccc2C2=NCCN21 (configuration not stated) , IC50 observed: 4.9

compound COc1cccc2c1C1=NCCN1C2(O)c1ccc(Cl)cc1 (configuration not stated) , IC50 observed: 4.7

* * *

Some compounds, each annotated with its measured pKi.
target: Sodium-dependent noradrenaline transporter (Homo sapiens); assay: Displacement of [125I]RTI-55 from human Norepinephrine transporter expressed in HEK cells; type: cell-based, HEK293
Units for pKi: none; it is -log10 of a concentration expressed in mol/L.

- Clc1ccc(C2c3ccccc3C3=NCCN32)cc1 (stereo not drawn): 6.77

Sodium-dependent noradrenaline transporter (Homo sapiens) assay, compound OC1(c2ccc(Cl)cc2)c2cc(Cl)c(Cl)cc2C2=NCCN21 (stereo not drawn) , recorded pKi = 7.40

Sodium-dependent noradrenaline transporter (Homo sapiens) assay, compound COc1ccc(C2(O)c3ccccc3C3=NCCCN32)cc1 (stereo not drawn) , recorded pKi = 7.08

* * *

test: Discrimination ratio against DAT as ratio of IC50 to that of Ki uptake to DAT.; format: functional
Response key: satisfied means Ratio >= 3; not satisfied means Ratio < 3.

Data request: Could you tell me if the measured Ratio of COc1cccc2c1C1=NCCN1C2(O)c1ccc(Cl)cc1 (stereo unspecified) reaches 3 or more?
Data returned: satisfied

Data request: Could you tell me if the measured Ratio of COc1ccc2c(c1)C(O)(c1ccc(Cl)cc1)N1CCN=C21 (stereo unspecified) reaches 3 or more?
Data returned: not satisfied

Data request: Could you tell me if the measured Ratio of OC1(c2ccc(Cl)cc2)c2ccccc2C2=NCCCN21 (stereo unspecified) reaches 3 or more?
Data returned: not satisfied

Data request: Could you tell me if the measured Ratio of OC1(c2ccc(Cl)cc2)c2cccc(F)c2C2=NCCN21 (stereo unspecified) reaches 3 or more?
Data returned: satisfied

Data request: Could you tell me if the measured Ratio of OC1(c2ccccc2)c2ccccc2C2=NCCN21 (stereo unspecified) reaches 3 or more?
Data returned: not satisfied

Data request: Could you tell me if the measured Ratio of OC1(c2ccc(Cl)cc2)c2cc(Cl)c(Cl)cc2C2=NCCN21 (stereo unspecified) reaches 3 or more?
Data returned: satisfied

* * *

biological target: Sodium-dependent dopamine transporter (Homo sapiens)
Some compounds, each annotated with its measured Ki.
Your answer should be a number followed by the unit of measure.

Below, 3 compounds whose answers are already recorded.
* OC1(c2ccc(Cl)cc2)c2cccc(F)c2C2=NCCN21 (stereo unspecified) | 23.1 nM
* COc1ccc2c(c1)C(O)(c1ccc(Cl)cc1)N1CCN=C21 (stereo unspecified) | 6 nM
* COc1cccc2c1C1=NCCN1C2(O)c1ccc(Cl)cc1 (stereo unspecified) | 2.9 nM

Sodium-dependent dopamine transporter (Homo sapiens) assay, compound COc1ccc(C2(O)c3ccccc3C3=NCCCN32)cc1 (stereo unspecified) , recorded Ki = 36.2 nM

Sodium-dependent dopamine transporter (Homo sapiens) assay, compound Clc1ccc(C2c3ccccc3C3=NCCN32)cc1 (stereo unspecified) , recorded Ki = 23 nM

Sodium-dependent dopamine transporter (Homo sapiens) assay, compound Oc1ccc(C2(O)c3ccccc3C3=NCCCN32)cc1 (stereo unspecified) , recorded Ki = 87.1 nM

* * *

experiment: Discrimination ratio against SERT as ratio of IC50 to that of Ki uptake to SERT.; assay type: functional
ENDPOINT: Ratio
Lab note: record just the number, no unit beside it.

Below, 3 molecules whose answers are already recorded.
- COc1cccc2c1C1=NCCN1C2(O)c1ccc(Cl)cc1 (centres undefined): 0.3
- OC1(c2ccc(Cl)cc2)c2cccc(F)c2C2=NCCN21 (centres undefined): 3.4
- COc1ccc(C2(O)c3ccccc3C3=NCCCN32)cc1 (centres undefined): 1.7

Here is another molecule to look at.
molecule OC1(c2ccc(Cl)cc2)c2ccccc2C2=NCCCN21 (centres undefined) , Ratio observed: 1.4
